Values were extracted from patent US20250326867A1.

- study.system: the molecule itself
- test: size-exclusion chromatography, self-association (homodimer)
- Experimental: FIG. 7. Size exclusion chromatography (SEC) traces of purified SP apo-proteins. Proteins were injected as 0.5 mL aliquots onto a Superdex™ 200 Increase 10/300 GL column (Cytiva Life Sciences). […] Proteins were purified by Ni-NTA and size-exclusion chromatography (SEC) (FIG. 7). […] Thermal denaturation curves monitored by the CD signal at 222 nm indicate that all three proteins are highly thermostable in the apo- and holo-states (FIG. 2).
measured.quantity: binding result

[
  {
    "protein": "SP3 (designed binder, Designed homodimer subunit, after TEV cleavage) SGSSEELARESAEAAWRLAQAGTRLMLAWIRGDLKEIAEALIELARAVQELARVAKEYGNDELAKTAALLAAHVAMLAILVLIRAIKEGDDEVRELAKTAIKLASTAAKIVLDALPTAEEVRQITLLAKLAEEAADKKNEDSALAVGIAAAAVLLALLALEAAQKAGIEEAEKGARLLLKLAMDAARKKNPEEALAVFNAALDVSIALKLLQSAKRAGSEETRKLAEEMLRQALERARK",
    "measured.quantity": "binding result",
    "result": "binds"
  },
  {
    "protein": "JG (designed binder, Designed homodimer subunit, after TEV cleavage) SGSGSSDELEARLLIISANLQAEMAQIAAERTGDPRVRELARELKRLAQEAAEEVKRDPSSSEVNQNLTLISMAIALAVLALLLARKAGDEEARDIAREAVEVAVRAAELILEGRDEQRAWTLFLIAHALLLAVLAARLGNSEVAELAVKVLRLAKELEKLLPSEIALFVVSMIGMAALQAAMAASGGQEDYARDALRRLEEAIREAEENRSKESLEKVMEEAIRAYEQALRALAGG",
    "measured.quantity": "binding result",
    "result": "binds"
  },
  {
    "protein": "JF (designed binder, Designed homodimer subunit, after TEV cleavage) SGSGSSDELQARFLILSAKLQAEMAQIAAERTGDPRVRELARELKRLAQEAAEEVKRDPSSSEVNSNLALISMAIALAVLALLLARKAGDEEARDIAREAVEVAVRAAELILEGRDDQRAWTLWLIAHALLMAVYAARLGNSEVAELAVKVLRLAKELEKLLPSEEALFVVSMIGLAALQAAMAAAGGQEDYARDALRRLEEAIREAEENRSKESLEKVEEEGIEAMEQALRAIAGG",
    "measured.quantity": "binding result",
    "result": "binds"
  }
]
